Documented MIC Staphylococcus aureus (ATCC 29213) across a set of molecules
Tested on: Staphylococcus sp.
TEST: in vitro antibacterial evaluation, MIC by broth dilution
Type: cell-based
RUN PARAMETERS: strain ATCC 29213; broth dilution, 18 hours at 35° C.

| MOLECULE | QUALIFIER OPERATOR | MIC Staphylococcus aureus (ATCC 29213) [µg/mL] |
| --- | --- | --- |
| CC(c1ccccc1)C1NC(=O)CNC(=O)C(CO)NC(=O)C(C(O)C2CNC(=N)N2C2OC(CO)C(O)C(O)C2O)NC(=O)C(C(O)C2CNC(=N)N2)NC(=O)C(Cc2ccc(OC3OC(CO)C(OC4OC(CO)C(O)C5OC(c6ccccc6)OC45)C(O)C3O)cc2)NC1=O (single isomer, unassigned) [Example 104b] | = | 0.5 |
| Cc1ccc(OC(=O)Nc2cc(CC3NC(=O)C(C(C)c4ccccc4)NC(=O)CNC(=O)C(CO)NC(=O)C(C(O)C4CNC(=N)N4C4OC(CO)C(O)C(O)C4O)NC(=O)C(C(O)C4CNC(=N)N4)NC3=O)ccc2O)cc1 (stereo not shown) [Example 19] | > | 128 |
| CC(c1ccccc1)C1NC(=O)CNC(=O)C(CO)NC(=O)C(CC2CN(Cc3ccccc3)C(=NCc3ccccc3)N2C2OC(CO)C(O)C(O)C2O)NC(=O)C(CC2CN(Cc3ccccc3)C(=NCc3ccccc3)N2Cc2ccccc2)NC(=O)C(Cc2ccc(OC3OC(CO)C(OC4OC(CO)C(O)C(O)C4O)C(O)C3O)cc2)NC1=O (stereo not shown) [Example 73] | > | 128 |
| CC(c1ccccc1)C1NC(=O)CNC(=O)C(CO)NC(=O)C(C(O)C2CNC(=N)N2C2OC(CO)C(O)C(O)C2O)NC(=O)C(C(O)C2CNC(=N)N2)NC(=O)C(Cc2ccc(O)c(N(C)C)c2)NC1=O (stereo not shown) [Example 12] | > | 128 |
| CC(C1CCCCC1)C1NC(=O)CNC(=O)C(CO)NC(=O)C(C(O)C2CNC(=N)N2C2OC(CO)C(O)C(O)C2O)NC(=O)C(C(O)C2CNC(=N)N2)NC(=O)C(Cc2ccc(OC3OC(CO)C(OC4OC5COC6(OC5C(O)C4O)C4CC5CC(C4)CC6C5)C(O)C3O)cc2)NC1=O (stereo not shown) [Example 221] | = | 1 |
| Cc1ccc(Oc2cccc(C3OCC4OC(OC5C(CO)OC(Oc6ccc(CC7NC(=O)C(C(C)c8ccccc8)NC(=O)CNC(=O)C(CO)NC(=O)C(C(O)C8CNC(=N)N8C8OC(CO)C(O)C(O)C8O)NC(=O)C(C(O)C8CNC(=N)N8)NC7=O)cc6I)C(O)C5O)C(O)C(O)C4O3)c2)cc1 (stereo not shown) [Example 197] | = | 32 |
| CC(c1ccccc1)C1NC(=O)CNC(=O)C(CO)NC(=O)C(C(O)C2CN(Cc3ccccc3-c3ccccc3)C(=N)N2C2OC(CO)C(O)C(O)C2O)NC(=O)C(C(O)C2CNC(=N)N2)NC(=O)C(Cc2ccc(OC3OC(CO)C(OC4OC(CO)C(O)C(O)C4O)C(O)C3O)cc2)NC1=O (stereo not shown) [Example 65] | > | 128 |
